Test: Hygrostability test
Assay type: physicochemical
Conditions: 25° C./90% RH for 2 weeks, vessel left open
reportedMetric: Related substance increase
Record the result as number plus unit.

Measured Related substance increase of C/C(=N\NC(=S)Nc1cccc(C(=O)[O-])c1)c1csc(-c2ccc(C(C)(C)C)cc2)c1O.[K+] [(4), reference compound] : 0.39%

Note to self: Related substance increase recorded for C/C(=N\NC(=S)Nc1cccc(C(=O)O)c1)c1csc(-c2ccc(C(C)(C)C)cc2)c1O.NC(CO)(CO)CO was −0.03%

Summary for this compound, C/C(=N\NC(=S)Nc1cccc(C(=O)[O-])c1)c1csc(-c2ccc(C(C)(C)C)cc2)c1O.C[N+](C)(C)CCO : Related substance increase is −0.01%

For this compound ( C/C(=N\NC(=S)Nc1cccc(C(=O)O)c1)c1csc(-c2ccc(C(C)(C)C)cc2)c1O.NCCO ), measured Related substance increase is 0.04%
